Where do the numbers come from? From ChEMBL document CHEMBL1148623.

Target: Cannabinoid receptor 1 (Homo sapiens, UniProt P21554)
Sequence (P21554 whole entry): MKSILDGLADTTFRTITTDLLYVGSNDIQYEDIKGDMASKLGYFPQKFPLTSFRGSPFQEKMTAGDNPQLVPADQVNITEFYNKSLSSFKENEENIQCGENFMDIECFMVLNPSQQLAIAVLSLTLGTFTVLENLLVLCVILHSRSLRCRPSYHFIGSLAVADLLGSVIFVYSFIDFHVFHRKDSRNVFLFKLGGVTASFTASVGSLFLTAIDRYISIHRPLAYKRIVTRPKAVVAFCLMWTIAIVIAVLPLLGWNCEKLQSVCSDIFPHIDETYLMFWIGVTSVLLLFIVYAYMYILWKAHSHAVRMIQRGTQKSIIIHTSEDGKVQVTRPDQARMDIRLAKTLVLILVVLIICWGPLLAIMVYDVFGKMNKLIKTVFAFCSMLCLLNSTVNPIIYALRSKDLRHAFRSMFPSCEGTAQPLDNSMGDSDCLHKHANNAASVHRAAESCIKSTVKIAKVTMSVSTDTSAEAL
Assay: Potency at human CB1 receptor in a [35S]GTP-gamma-S functional assay
Each record here notes measured log10 of EC50.
In plain terms, each number is the log10 of measured EC50 in nM.

Solved entries:
O=C1C(c2ccccc2)N(c2cccc(Cl)c2)C(=O)N1c1cccc(Cl)c1 (centres undefined) :: 2.97
O=C1C(c2ccc(Cl)cc2)N(c2ccc(Cl)cc2)C(=O)N1c1ccc(Cl)cc1 (centres undefined) :: 3.05
O=C1C(c2ccc(Br)cc2)N(c2ccc(Cl)cc2)C(=O)N1c1ccc(Cl)cc1 (centres undefined) :: 3.09
O=C1C(c2ccccc2)N(c2ccc(Br)cc2)C(=O)N1c1ccc(Br)cc1 (centres undefined) :: 2.29
O=C1C(c2ccccc2)N(c2ccc(Br)cc2)C(=S)N1c1ccc(Br)cc1 (centres undefined) :: 3.21
O=C1C(c2ccccc2)N(c2ccc(Cl)cc2)C(=O)N1c1ccc(Cl)cc1 (centres undefined) :: 2.49
CCCCCCC(C)(C)c1cc(O)c2c(c1)OC(C)(C)[C@@H]1CC=C(CO)C[C@@H]21 :: -0.22
O=C1C(c2ccccc2)N(c2ccc(Cl)cc2)C(=S)N1c1ccc(Cl)cc1 (centres undefined) :: 3.32

Entry O=C1C(c2ccccc2)N(c2cccc(I)c2)C(=S)N1c1cccc(I)c1 (centres undefined) — recorded log10 of EC50 = 2.66

---

Assay read-out Ki; system under study: Cannabinoid receptor 1 (Rattus norvegicus, UniProt P20272).
Sequence (P20272 whole entry): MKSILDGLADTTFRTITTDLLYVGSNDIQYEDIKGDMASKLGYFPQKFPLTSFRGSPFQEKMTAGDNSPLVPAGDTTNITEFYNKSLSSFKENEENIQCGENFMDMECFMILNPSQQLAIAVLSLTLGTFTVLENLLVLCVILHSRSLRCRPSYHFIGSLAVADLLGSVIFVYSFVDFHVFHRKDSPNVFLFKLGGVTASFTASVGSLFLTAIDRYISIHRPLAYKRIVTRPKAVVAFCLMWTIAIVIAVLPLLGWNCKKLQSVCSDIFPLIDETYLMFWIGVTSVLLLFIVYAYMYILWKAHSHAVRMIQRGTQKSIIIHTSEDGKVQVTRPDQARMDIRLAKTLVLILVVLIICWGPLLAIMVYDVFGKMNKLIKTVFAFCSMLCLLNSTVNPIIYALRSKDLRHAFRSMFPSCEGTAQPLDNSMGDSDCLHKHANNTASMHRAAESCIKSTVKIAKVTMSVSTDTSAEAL
Record the value in nM, omitting the unit from your answer.

O=C1C(c2ccc(Cl)cc2)N(c2ccc(Cl)cc2)C(=O)N1c1ccc(Cl)cc1 (centres undefined) :: 2620
O=C1C(c2ccccc2)N(c2ccc(Br)cc2)C(=O)N1c1ccc(Br)cc1 (centres undefined) :: 311
O=C1C(c2ccccc2)N(c2ccc(Cl)cc2)C(=O)N1c1ccc(Cl)cc1 (centres undefined) :: 247

Consider the record given below.
Case CCCCCCC(C)(C)c1cc(O)c2c(c1)OC(C)(C)[C@@H]1CC=C(CO)C[C@@H]21 , Cannabinoid receptor 1 (Rattus norvegicus, UniProt P20272), Ki recorded as 2.75

---

Assay read-out Ki; system under study: Cannabinoid receptor 1 (Homo sapiens).
Record the value in µM, omitting the unit from your answer.

Solved entries:
O=C1C(c2ccccc2)N(c2cccc(I)c2)C(=S)N1c1cccc(I)c1 (stereo not drawn) :: 0.692
CCCCCCC(C)(C)c1cc(O)c2c(c1)OC(C)(C)[C@@H]1CC=C(CO)C[C@@H]21 :: 0.0186
COc1ccc(N2C(=O)C(c3ccccc3)N(c3ccc(OC)cc3)C2=S)cc1 (stereo not drawn) :: 7.03
O=C1C(c2ccc(Br)cc2)N(c2ccccc2)C(=S)N1c1ccccc1 (stereo not drawn) :: 6.31
O=C1C(c2ccc(Cl)cc2)N(c2cccc(Cl)c2)C(=O)N1c1cccc(Cl)c1 (stereo not drawn) :: 3.31
COc1ccc(N2C(=O)C(c3ccccc3)N(c3ccc(OC)cc3)C2=O)cc1 (stereo not drawn) :: 6.46

Entry O=C1C(c2ccc(Br)cc2)N(c2ccc(Cl)cc2)C(=O)N1c1ccc(Cl)cc1 (stereo not drawn) — recorded Ki = 0.905

---

Molecular target: UniProt P34972
Sequence (P34972 whole entry): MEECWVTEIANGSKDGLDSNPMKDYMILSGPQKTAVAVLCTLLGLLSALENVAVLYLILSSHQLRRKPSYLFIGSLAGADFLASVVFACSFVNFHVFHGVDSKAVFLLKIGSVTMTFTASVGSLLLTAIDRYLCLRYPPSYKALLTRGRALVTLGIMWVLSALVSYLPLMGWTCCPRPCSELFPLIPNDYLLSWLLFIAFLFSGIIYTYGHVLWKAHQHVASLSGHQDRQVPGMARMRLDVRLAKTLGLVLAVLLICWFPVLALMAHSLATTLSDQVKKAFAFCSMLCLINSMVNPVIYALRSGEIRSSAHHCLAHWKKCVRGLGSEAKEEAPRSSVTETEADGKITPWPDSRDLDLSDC
Test: Displacement of [3H]CP-55940 from human CB2 receptor expressed in CHO cells at 10 uM
Assay type: cell-based
Each record here notes measured Activity.

Solved entries:
O=C1NC(=O)N(c2ccc(I)cc2)C1c1ccccc1 (stereo unspecified) :: < 10%
COc1ccc(N2C(=O)C(c3ccccc3)N(c3ccc(OC)cc3)C2=O)cc1 (stereo unspecified) :: 31.4%
O=C1NC(=O)N(c2ccccc2)C1c1ccc(Br)cc1 (stereo unspecified) :: < 10%
O=C1NC(=S)N(c2ccccc2)C1c1ccccc1 (stereo unspecified) :: < 10%
O=C1C(c2ccccc2)N(c2ccc(Br)cc2)C(=O)N1c1ccc(Br)cc1 (stereo unspecified) :: 35.6%

Consider the record given below.
Case O=C1C(c2ccccc2)N(c2cccc(Cl)c2)C(=O)N1c1cccc(Cl)c1 (stereo unspecified) , UniProt P34972, Activity recorded as 32.1%
